# Test system: cells (nuclei count)
# Measurement context: Toxicity Data, Average of Exp 1-3, 10 uM
Endpoint: Toxicity Data, Average, Mean (relative to DMSO control) (%)
Unit % implied. Number only.

[[record]]
molecule = "CN1CCN(CC(O)COc2c(CNCCc3ccccc3F)cccc2C2CCCCC2)CC1 (stereo not drawn) [SILCS4]"
readout_units = "%"
reading = 122.04

[[record]]
molecule = "CN(C)CCN(Cc1ccccc1)Cc1cc(C#CCO)cs1 [SILCS5]"
readout_units = "%"
reading = 102.76

[[record]]
molecule = "Cc1ccc(CN(CCN(C)C)Cc2ccccc2)o1 [SILCS11]"
readout_units = "%"
reading = 120.55

[[record]]
molecule = "CN1CCN(CC(O)COc2cccc(N3CCCCC3)c2CNCCc2ccccc2F)CC1 (stereo not drawn) [SILCS10]"
readout_units = "%"
reading = 131.00

[[record]]
molecule = "CN(C)CCN(Cc1ccsc1)Cc1ccc(CO)o1 [SILCS9]"
readout_units = "%"
reading = 111.19


Could you now look at the following molecule, please?
Would you mind telling me what Toxicity Data, Average, Mean (relative to DMSO control) value was observed for Cc1ccc(CN(CCN(C)C)Cc2ccc(C)s2)o1 [SILCS7] ? 106.58

This collection of values is drawn from patent US20240132484A1.
